src = BigSolDB 2.1

Conditions: in n-propanol, 293.25 K
Value Type: solubility (mole fraction)
# print the numeric value only

Any idea what solubility (mole fraction) was measured for `CC(=O)S[C@@H]1CC2=CC(=O)CC[C@]2(C)[C@H]2CC[C@@]3(C)[C@@H](CC[C@@]34CCC(=O)O4)[C@H]12` ?
0.00395

* * *

Conditions: in ethanol, 288.45 K
Value Type: solubility (mole fraction)
# print the numeric value only

Any idea what solubility (mole fraction) was measured for `CC(=O)S[C@@H]1CC2=CC(=O)CC[C@]2(C)[C@H]2CC[C@@]3(C)[C@@H](CC[C@@]34CCC(=O)O4)[C@H]12` ?
0.00238
